- Tested on: NCI-H460
- assay summary: Cytotoxicity against human NCI-H460 cells at 10 uM after 48 hrs by WST-1 assay
- Assay type: functional
Consider the following molecules and their measured Activity readings.
measured endpoint: Activity (%)

1. CCOC(=O)CC(=O)c1cccnc1 :: 19
2. CCOC(=O)CC(=O)c1cn(C(=O)OC(C)(C)C)c2ccccc12 :: 39
3. CCOC(=O)C(C)C(=O)c1nccc2ccccc12 (configuration not stated) :: 19
4. CCOC(=O)CC(=O)c1cnc2ccccc2c1 :: 20
5. CCOC(=O)C(C)C(=O)c1cnccn1 (configuration not stated) :: 87
6. CCOC(=O)CC(=O)c1ccncc1 :: 10
7. CCOC(=O)CC(=O)c1cccc2sc(Br)nc12 :: 14
8. CCOC(=O)CC(=O)c1cnccn1 :: 20
9. CCOC(=O)CC(=O)c1nccn1CCOC :: 14
10. CCOC(=O)CC(=O)c1ccccn1 :: 36
11. CCOC(=O)CC(=O)c1nccn1C :: 14
12. CCOC(=O)CC(=O)c1cc2ccccc2cn1 :: 17
13. CCOC(=O)CC(=O)c1nccc2ccccc12 :: 34
14. CCOC(=O)CC(=O)c1cnc(Cl)cn1 :: 34
15. CCOC(=O)CC(=O)c1ncccn1 :: 20
16. CCOC(=O)CC(=O)c1sc(Cl)nc1C :: 24
17. CCOC(=O)CC(=O)c1ccncn1 :: 13

====

Consider the following compounds and their measured MIC readings.
- Test system: Klebsiella pneumoniae
- assay summary: Antibacterial activity against Klebsiella pneumoniae after 24 hrs
- Type: functional
measured endpoint: MIC (µg/mL)

1. CCOC(=O)CC(=O)c1cccc2sc(Br)nc12 :: 6.25
2. CCOC(=O)CC(=O)c1cnc(Cl)cn1 :: 6.25
3. CCOC(=O)CC(=O)c1cc2ccccc2cn1 :: 12.5
4. CCOC(=O)CC(=O)c1ncccn1 :: 6.25
5. CCOC(=O)CC(=O)c1nccc2ccccc12 :: 6.25
6. O=C(O)c1cn(C2CC2)c2cc(N3CCNCC3)c(F)cc2c1=O [CIPROFLOXACIN] :: 6.25

====

Consider the following compounds and their measured MIC readings.
- Tested on: Aspergillus flavus
- assay summary: Antifungal activity against Aspergillus flavus NCIM 524 after 3 to 4 days
- Type: functional
measured endpoint: MIC (µg/mL)

1. CCOC(=O)CC(=O)c1cnc(Cl)cn1 :: 6.25
2. CCOC(=O)CC(=O)c1cc2ccccc2cn1 :: 6.25
3. CCOC(=O)CC(=O)c1ncccn1 :: 12.5
4. Cc1cc(C2CCCCC2)n(O)c(=O)c1.NCCO [CICLOPIROX OLAMINE] :: 3.12
5. CCOC(=O)CC(=O)c1cccc2sc(Br)nc12 :: 12.5
6. CCOC(=O)CC(=O)c1nccc2ccccc12 :: 12.5

====

- Test system: HCT-116
- assay summary: Cytotoxicity against human HCT116 cells at 10 uM after 48 hrs by WST-1 assay
- Type: functional
Consider the following molecules and their measured Activity readings.
measured endpoint: Activity (%)

1) CCOC(=O)C(C)C(=O)c1nccc2ccccc12 (configuration not stated) :: 24
2) CCOC(=O)CC(=O)c1cccnc1 :: 30
3) CCOC(=O)CC(=O)c1nccc2ccccc12 :: 26
4) CCOC(=O)CC(=O)c1cc2ccccc2cn1 :: 29
5) CCOC(=O)CC(=O)c1ccccn1 :: 21
6) CCOC(=O)CC(=O)c1cnc(Cl)cn1 :: 40
7) CCOC(=O)CC(=O)c1cn(C(=O)OC(C)(C)C)c2ccccc12 :: 33
8) CCOC(=O)CC(=O)c1nccn1C :: 11
9) CCOC(=O)CC(=O)c1cccc2sc(Br)nc12 :: 39
10) CCOC(=O)CC(=O)c1sc(Cl)nc1C :: 48
11) CCOC(=O)CC(=O)c1cnc2ccccc2c1 :: 28
12) CCOC(=O)CC(=O)c1cnccn1 :: 30
13) CCOC(=O)CC(=O)c1ncccn1 :: 23
14) CCOC(=O)CC(=O)c1ccncn1 :: 20
15) CCOC(=O)CC(=O)c1ccncc1 :: 39
16) CCOC(=O)CC(=O)c1nccn1CCOC :: 28
17) CCOC(=O)C(C)C(=O)c1cnccn1 (configuration not stated) :: 90
